The values you see were collected from the supplement of paper PMC9942255.

Tested on: Bacillus subtilis DB104 (SP-AmyQ fusion secretion)
testDescription: AmyQ secretion efficiency, weighted average sort bin (1 = best secretion, 10 = worst) (bin number (weighted average, 1-10)); higher = lower secretion efficiency
measurementName: AmyQ secretion efficiency
Answers are plain numbers.

Here is how some sequences turned out for AmyQ secretion efficiency.
MFNRLFRVCRRAALIMAFTLPNSVYAQKP : 4.23
MTGGSAVLLSLIMLIAGFLISFSFQM : 7.63
MTKKAWFLPLVCVLLISGWLAPAASASKQTT : 2.02
MKKTIMSFVAVAALSTTAFGAHASAATI : 2.11
MKKLIMMTGLLFGLTSPAFAAEK : 2.43

Below are 8 sequences. Give each one its AmyQ secretion efficiency.
1. MGKWIYVVLVLSIAGIGGFSVHAASS
2. MKNMSCKLVVSVTLFFSFLTIGPLGHAQNS
3. MKVKKSALLLLLFAFEPSASGKKL
4. MRNLTKTSLLLAGLCTAAQMVFVTHASAKKK
5. MKKRLIAPMLLSAASLAFFAMSGSVQAAAY
6. MKKIVSILFMFGLVMGFSQFQPSTVFADED
7. MIKKCSVCLWILVLLLSCLSGKSAYAATS
8. MKLWMRKTLVVLFTIVTFGLVSPPAASMADKP

Reply:
1: 6.5; 2: 2.46; 3: 7.2; 4: 3.84; 5: 4.49; 6: 4.03; 7: 2.24; 8: 1.85

Ask: Give the value of AmyQ secretion efficiency reported for the following: MKRTWNRCGSSYKTYYLVAGSVPFHAEAKKP
Reply: 6.5

* * *

System: Bacillus subtilis DB104 (SP-AmyQ fusion secretion)
testDescription: AmyQ secretion efficiency, weighted average sort bin (1 = best secretion, 10 = worst) (bin number (weighted average, 1-10)); higher = lower secretion efficiency
measurementName: AmyQ secretion efficiency
Give bare numbers.

Sample records with AmyQ secretion efficiency:
MKKELLASLVLCLSLSPLVSTNEVFAATT : 2.73
MFNRLFRVCFLAALIMAFTLPNSLYAQKP : 2.72
MKKIMSAFVGMVLLTIFCVSTLTFSPQASAAYD : 4.76
MTQFAITLSVLCALILLVPTLLVIPFQHNKEAGASV : 7.59
MKVLLSALLLLFEPSASGKKL : 7.48

State the recorded AmyQ secretion efficiency for every item in the following list.
1. MSKLVLCVSILAVILSGVALTQLS
2. MKLRKVLTGSVLSLGLLVSASPAFATSR
3. MKVPKTMLLSTAAGLLLSLTATSKSAHYV
4. MKKRMMMIMFFGPIILAFILFAGAIAIPS
5. MLKKKWMVGLLAGCLAAGGFSYNAFFTEN
6. MHLITAAGAVCLAVVLIAGCRFNEDQHQAEGENT

Reply:
6.37
1.56
6.37
7.34
6.5
5.34

* * *

Test system: Bacillus subtilis DB104 (SP-AmyQ fusion secretion)
testDescription: AmyQ secretion efficiency, weighted average sort bin (1 = best secretion, 10 = worst) (bin number (weighted average, 1-10)); higher = lower secretion efficiency
Record form. Attribute: AmyQ secretion efficiency. Fill in for each entry.

A selection of reference data follows.
MLKKIALTLCPAIVGSLLFFTAIASAHVS : 3.46
MKKRLIAPMLLSAASLAFFAMSGSFQAAAY : 7.38
MKKGIIRFRRVSFVLFFALSTGITGVQAAPA : 2.36
MKKKIVAGLAVSAVVIVAMAAAIAEAKTI : 6.55
MKLAKRVSALTPSTTLAITAKSKEL : 7.27
MFKKLRKKKKRLTFSLSLVLPLDGHAKAQEV : 6.86
MKRKLLSSLAISALSLGSAPTASFAAES : 3.3
MKVPKTMYQRRQAGLLLSLTATSVSAHYV : 6.61
MKRIRIPMTLALGAALTIAPLSFFSAEEN : 6.31
MRSKKLWISLLFALTLIKKKAFSNMSAQAAGK : 8.69

// for each sequence below, give its AmyQ secretion efficiency
1. MRKNRILALFVLSLGLLSFMVTPCSAASK
2. MKNMSCKLVVSVTLFFSFLTIGPLAHADDE
3. MAIIIAIIAAVIVIAALITFNVRNESPG
4. MKKAFLVFLSVVLVTTVFLVKQQESVLQAKQL
5. MKLKKRVSMFLVALTMCGGLFVTPQAKAVKT

Reply:
2.01
3.5
7.39
4.04
3.89
